# Species on record: Rattus norvegicus
# EXPERIMENTAL PROTOCOL: Compound was tested for inhibition of microsomal lipid peroxidation and the potency relative to terbufucine was determined
# Assay type: functional
What Relative potency was measured for each of the following?
Numbers only.

Look over these answered cases.
CC(=O)Oc1c(C(C)C)c(-c2ccc(F)cc2)c(O)c(C(C)C)c1C(C)C
2
CC(C)c1cc(Sc2ccc(F)cc2)cc(-c2ccc(F)cc2)c1O
3
CC(C)(C)c1cc(C(C(=O)O)c2cc(C(C)(C)C)c(O)c(C(C)(C)C)c2)cc(C(C)(C)C)c1O
100
CC(=O)Oc1c(-c2ccc(F)cc2)c(C(C)C)c(O)c(C(C)C)c1C(C)C
4

Lab book: Relative potency of CC(C)c1cc(SC(C)(C)Sc2cc(-c3ccc(F)cc3)c(OCC(O)C[C@@H](O)CC(=O)[O-])c(C(C)C)c2)cc(-c2ccc(F)cc2)c1[O-].[Na+].[Na+] (some centres undefined) noted as 4

---

Please provide measured IC50 for the entries that follow.
# Species: Rattus norvegicus
# EXPERIMENTAL PROTOCOL: In vitro inhibition of microsomal lipid peroxidation
# Type: functional
Numbers only, in nM.

Look over these answered cases.
CC(=O)Oc1c(-c2ccc(F)cc2)c(C(C)C)c(O)c(C(C)C)c1C(C)C
2800
CC(C)c1cc(SC(C)(C)Sc2cc(-c3ccc(F)cc3)c(OCC(O)C[C@@H](O)CC(=O)[O-])c(C(C)C)c2)cc(-c2ccc(F)cc2)c1[O-].[Na+].[Na+] (stereo not given in full)
2700
CC(=O)Oc1c(C(C)C)c(-c2ccc(F)cc2)c(O)c(C(C)C)c1C(C)C
4800

Below: the item to evaluate.
Lab book: IC50 of CC(C)c1cc(Sc2ccc(F)cc2)cc(-c2ccc(F)cc2)c1O noted as 3000

---

For each entry below, report its IC50 value.
# TESTED SYSTEM: 3-hydroxy-3-methylglutaryl-coenzyme A reductase (Homo sapiens, UniProt P04035)
# Sequence (P04035 whole entry): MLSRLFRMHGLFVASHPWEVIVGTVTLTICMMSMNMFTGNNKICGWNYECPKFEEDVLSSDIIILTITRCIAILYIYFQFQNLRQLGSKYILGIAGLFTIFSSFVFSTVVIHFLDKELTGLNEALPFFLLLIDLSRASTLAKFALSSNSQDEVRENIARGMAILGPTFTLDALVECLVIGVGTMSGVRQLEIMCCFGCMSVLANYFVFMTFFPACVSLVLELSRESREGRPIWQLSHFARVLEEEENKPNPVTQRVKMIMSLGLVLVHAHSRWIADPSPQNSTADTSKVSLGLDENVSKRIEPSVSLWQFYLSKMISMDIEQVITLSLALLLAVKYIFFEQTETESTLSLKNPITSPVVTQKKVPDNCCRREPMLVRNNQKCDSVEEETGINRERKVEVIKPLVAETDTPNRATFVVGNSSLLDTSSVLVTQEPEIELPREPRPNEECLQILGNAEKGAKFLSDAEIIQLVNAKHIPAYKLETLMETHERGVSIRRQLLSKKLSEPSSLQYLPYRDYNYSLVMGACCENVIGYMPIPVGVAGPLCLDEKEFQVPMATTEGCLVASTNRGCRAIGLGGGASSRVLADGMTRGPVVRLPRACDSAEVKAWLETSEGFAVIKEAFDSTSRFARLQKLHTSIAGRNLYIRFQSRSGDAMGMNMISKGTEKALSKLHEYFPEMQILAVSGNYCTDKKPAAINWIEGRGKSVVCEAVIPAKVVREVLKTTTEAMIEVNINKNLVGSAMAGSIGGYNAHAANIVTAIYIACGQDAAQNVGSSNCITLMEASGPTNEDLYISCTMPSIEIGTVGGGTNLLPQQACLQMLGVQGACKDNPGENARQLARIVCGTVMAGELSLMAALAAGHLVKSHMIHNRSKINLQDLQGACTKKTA
# EXPERIMENTAL PROTOCOL: Inhibition of the incorporation of sodium [14C]acetate into cholesterol in HEP G2 cells.
# Assay type: functional, cell-based, HepG2
Numbers only, in nM.

Some solved cases for reference:
CC(C)c1cc(-c2ccc(F)cc2)c(OCC2C[C@@H](O)CC(=O)O2)c(C(C)C)c1 (stereo not given in full)
1.8
CC(C)c1c(OCC(O)C[C@@H](O)CC(=O)O)c(-c2ccc(F)cc2)nc2ccccc12 (stereo not given in full)
250
O=C(O)C[C@H](O)CC(O)COc1c(Cl)cc(Cl)cc1C(F)(F)C1CCCCC1 (stereo not given in full)
2500
CC(C)c1cc(Sc2ccc(F)cc2)cc(-c2ccc(F)cc2)c1OCC(O)C[C@@H](O)CC(=O)[O-].[Na+] (stereo not given in full)
0.5
CCC(C)(C)C(=O)NC(c1cc(C)cc(C)c1OCC(O)C[C@@H](O)CC(=O)O)C1CCCCC1 (stereo in doubt; 11w)
15000
CCC(C)(C)C(=O)NC(c1cc(C)cc(C)c1OCC(O)C[C@@H](O)CC(=O)O)C1CCCCC1 (stereo in doubt; 11x)
10000

CCC(C)(C)OC(=O)C(c1cc(C)cc(C)c1OCC(O)C[C@@H](O)CC(=O)O)C1CCCCC1 (stereo in doubt; 11s) has a reported IC50 of 1700

Values compiled from ChEMBL document CHEMBL1125911.
